Would you kindly list T/C for each of these compounds?
- Tested on: L1210 leukemia ip in BDF1 mice, survival T/C
- Assay: NCI In Vivo Anticancer Drug Screen. Data for tumor model L1210 Leukemia (intraperitoneal) in B6D2F1 (BDF1) mice
- Assay setup: endpoint: mean survival time; dose: 100.0 mg/kg/injection; schedule: Q04DX003 (ip); vehicle: saline; higher = longer survival
Toxic doses and inconclusive results are not listed.

With L1210 leukemia ip in BDF1 mice, survival T/C as the test system, `O=C1c2ccccc2C(=O)N1CNc1ccc(Cc2ccc(NCN3C(=O)c4ccccc4C3=O)c(Cl)c2)cc1Cl` showed T/C of 101 % of control

With L1210 leukemia ip in BDF1 mice, survival T/C as the test system, `O=C(NOS(=O)(=O)O)c1ccccc1` showed T/C of 100 % of control

With L1210 leukemia ip in BDF1 mice, survival T/C as the test system, `CC(C)n1cc2c(N)ncnc2n1` showed T/C of 103 % of control

With L1210 leukemia ip in BDF1 mice, survival T/C as the test system, `C=CCn1cnc(=N)c2[nH]cnc21` showed T/C of 90 % of control

With L1210 leukemia ip in BDF1 mice, survival T/C as the test system, CC(=O)OCC1OC(OC(C)=O)C(NC(=O)N(C)C)C(OC(C)=O)C1OC(C)=O (stereo unspecified) showed T/C of 106 % of control

With L1210 leukemia ip in BDF1 mice, survival T/C as the test system, `CN1C(=O)CC[n+]2ccccc21` showed T/C of 101 % of control

---

- Test system: L1210 leukemia ip in BDF1 mice, survival T/C
- Assay: NCI In Vivo Anticancer Drug Screen. Data for tumor model L1210 Leukemia (intraperitoneal) in B6D2F1 (BDF1) mice
- Assay setup: endpoint: mean survival time; dose: 200.0 mg/kg/injection; schedule: Q04DX003 (ip); vehicle: saline; higher = longer survival
Inconclusive results and toxic doses are left out.
Would you kindly list T/C for each of these molecules?

Note to self: T/C recorded for `NCc1c[nH]c2ccccc12` was 95 % of control

Note to self: T/C recorded for `CC(=O)/C(C1=NCCC1)=C(/C)O` was 98 % of control

Note to self: T/C recorded for `COc1ccc(CN(C(C)=O)c2cc(C)c([N+](=O)[O-])cc2OC)cc1OC` was 100 % of control

Note to self: T/C recorded for `CCOc1ccc(NC(=S)N=Nc2c(O)[nH]c3c(Cl)cc(Cl)cc23)cc1` was 89 % of control

Note to self: T/C recorded for COc1ccc(/C=C2\CCC3C(CCCC34OCCO4)C2=O)cc1 (stereo unspecified) was 97 % of control

Note to self: T/C recorded for `CC12CC3CC(C1)CC(C(=O)O)(C3)C2` was 97 % of control

---

- Test system: L1210 leukemia ip in BDF1 mice, survival T/C
- Assay: NCI In Vivo Anticancer Drug Screen. Data for tumor model L1210 Leukemia (intraperitoneal) in B6D2F1 (BDF1) mice
- Assay setup: endpoint: mean survival time; dose: 50.0 mg/kg/injection; schedule: Q04DX002 (ip); vehicle: saline; higher = longer survival
Inconclusive results and toxic doses are left out.
Parameter measured: T/C

With L1210 leukemia ip in BDF1 mice, survival T/C as the test system, O=C(NCCO)C1OCOC2C(CO)OCOC12 (centres undefined) showed T/C of 101 % of control

With L1210 leukemia ip in BDF1 mice, survival T/C as the test system, CC1CCCN(C(=O)/C=C/c2ccccc2)C1 (centres undefined) showed T/C of 104 % of control

With L1210 leukemia ip in BDF1 mice, survival T/C as the test system, COC(=O)C1=C2c3ccccc3NC(=O)N2NC1C(=O)OC (centres undefined) showed T/C of 108 % of control

With L1210 leukemia ip in BDF1 mice, survival T/C as the test system, CC1(C)OC2OC(COC(=S)Sc3ccc([N+](=O)[O-])cc3[N+](=O)[O-])C3OC(C)(C)OC3C2O1 (centres undefined) showed T/C of 120 % of control

Measured values drawn from PubChem BioAssay AID248 for this set.
